# experimental_system: Cytochrome P450 2D6 (Homo sapiens) (UniProt P10635)
# Sequence (P10635 whole entry, looked up): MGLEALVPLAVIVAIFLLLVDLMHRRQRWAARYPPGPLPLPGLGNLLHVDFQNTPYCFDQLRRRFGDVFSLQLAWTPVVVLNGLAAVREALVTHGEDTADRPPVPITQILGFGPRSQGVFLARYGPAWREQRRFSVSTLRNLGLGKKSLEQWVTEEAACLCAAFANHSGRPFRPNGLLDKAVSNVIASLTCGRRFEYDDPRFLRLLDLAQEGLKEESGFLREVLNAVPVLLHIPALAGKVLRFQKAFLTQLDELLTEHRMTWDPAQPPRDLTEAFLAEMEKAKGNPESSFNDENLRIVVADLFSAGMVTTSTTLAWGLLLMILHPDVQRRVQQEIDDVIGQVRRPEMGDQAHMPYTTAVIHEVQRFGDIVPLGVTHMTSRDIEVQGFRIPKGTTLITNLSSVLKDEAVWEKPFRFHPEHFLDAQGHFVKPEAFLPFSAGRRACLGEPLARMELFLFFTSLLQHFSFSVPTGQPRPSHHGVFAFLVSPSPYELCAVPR
# assay_protocol: Cytochrome panel assay with activity outcomes; note: % is set by controls: 0 for no effect and ±100 for the full control effect
# condition_details: recombinant CYP, pro-luciferin dealkylation, luminescence, p450-cyp2d6; series mostly up to 57.1 µM
Screen size: about 16,000 compounds; about 2,600 (16%) were called active. Roughly 20% stayed inconclusive and do not appear here. Shown is part of a subset that was picked to be rich in actives.
Measured activity, negative = inhibition values are reported for all entries that follow.

Previously resolved entries follow.
INPUT: # activity, negative = inhibition lookup, item C[C@]12CC[C@H]3c4ccc(O)cc4CC[C@@H]3[C@H]1CC[C@@H]2OC(=O)CCc1ccccc1
OUTPUT: -5.32% [at 11.4 µM] (inactive)

INPUT: Which activity, negative = inhibition reading was recorded for the molecule Oc1ccc([C@H](O)[C@@H]2CCCCN2)cc1O ?
OUTPUT: 15.6% [at 11.4 µM] (inactive)

INPUT: Would you mind telling me what activity, negative = inhibition value was observed for CC(=O)O[C@H]1CC[C@@]2(C)[C@@H](CC[C@H]3[C@H]2CC(=O)[C@]2(C)[C@@H]3C[C@@H](N3CC3)[C@H]2C(C)=O)C1 ?
OUTPUT: -8.74% [at 11.4 µM] (inactive)

Others:
INPUT: Param item = [N-]=[N+]=CC(=O)CC[C@H](N)C(=O)O ; retrieve measured activity, negative = inhibition.
OUTPUT: -11.2% [at 11.4 µM] (inactive)

INPUT: Dear colleague, I am looking for the recorded activity, negative = inhibition of the following molecule: C[N+]1([O-])[C@H]2CC[C@H]1CC(OC(=O)[C@@H](CO)c1ccccc1)C2 (some centres not stated)
OUTPUT: 17.4% [at 11.4 µM] (inactive)

INPUT: Any idea what its activity, negative = inhibition is? The molecule is NCCc1c[nH]c2ccc(OC(=O)C(=O)O)cc12
OUTPUT: -17.3% [at 11.4 µM] (inactive)

INPUT: Fill blank: measured activity, negative = inhibition of the molecule C[C@@]12CC[C@@H]3[C@H](CCC4=CC(=O)CC[C@]43C)[C@@H]1CC[C@@H]2C(=O)Cn1cnc2c(=S)nc[nH]c21 is ____.
OUTPUT: 7.22% [at 11.4 µM] (inactive)
